biological target: JAK2 (Homo sapiens (Human), UniProt O60674); assay: JAK Caliper Enzyme Assay at 1 mM ATP, JAK2; format: biochemical
Sequence (O60674 849-1124): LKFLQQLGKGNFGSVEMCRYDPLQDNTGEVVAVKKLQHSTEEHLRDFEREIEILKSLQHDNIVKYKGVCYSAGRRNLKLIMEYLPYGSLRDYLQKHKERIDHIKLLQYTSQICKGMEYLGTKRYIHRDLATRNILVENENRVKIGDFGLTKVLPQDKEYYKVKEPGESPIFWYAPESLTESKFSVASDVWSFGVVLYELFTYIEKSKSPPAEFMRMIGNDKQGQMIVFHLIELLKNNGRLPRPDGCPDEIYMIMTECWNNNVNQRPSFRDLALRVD
pIC50: −log10 of the molar value.
Reported metric: pIC50

N#CC[C@]1(n2ccc(-c3nc(-c4ccc(N)nc4)cc4ncccc34)n2)C[C@@H](C#N)C1 ... 7.51
CO[C@H]1C[C@@](CC#N)(n2ccc(-c3nc(-c4cnn(C5COC5)c4)cc4ncccc34)n2)C1 ... 6.41

I = CS(=O)(=O)c1ccc(-c2cc(-c3cnn([C@]4(CC#N)C[C@H](C#N)C4)n3)c3cccnc3c2)nc1
II = N#CC[C@H]1C[C@](CC#N)(n2cc(-c3nc(-c4cn[nH]c4)cc4ncccc34)cn2)C1
III = N#CC[C@]1(n2ccc(-c3nc(-c4cc[nH]n4)cc4ncccc34)n2)C[C@@H](C(N)=O)C1
IV = N#CCC1(n2cc(-c3nc(-c4cnn(C5CCOCC5)c4)cc4ncccc34)cn2)CN(CC(F)(F)F)C1
(Q) Arrange items by their pIC50 values in increasing order. List the labels according to the requested ordering.
(A) III, II, I, IV
(III: 5.77, II: 6.90, I: 7.38, IV: 7.85)

a = N#CC[C@]1(n2ncc(-c3cc(-c4ncc(CO)s4)cc4ncccc34)n2)C[C@H](C#N)C1
b = CO[C@H]1C[C@](CC#N)(n2ccc(-c3nc(-c4c[nH]nc4N)cc4ncccc34)n2)C1 [Example 95]
c = Cc1cc(-c2cc3ncccc3c(-c3ccn([C@]4(CC#N)C[C@](C)(C#N)C4)n3)n2)n[nH]1
d = CS(=O)(=O)N1CC(CC#N)(n2ccc(-c3nc(-c4cnc5nccn5c4)cc4ncccc34)n2)C1
e = Cn1ncc(-c2cc3ncccc3c(-c3ccn(C4(CC#N)CN(S(C)(=O)=O)C4)n3)n2)c1N
(Q) Arrange items by their pIC50 values in increasing order. List the labels according to the requested ordering.
(A) d, a, b, e, c

1 = CS(=O)(=O)N1CC(CC#N)(n2ccc(-c3nc(-c4cnc5cn[nH]c5c4)cc4ncccc34)n2)C1
2 = N#CC[C@]1(n2ccc(-c3nc(-c4ccc(O)c(C(N)=O)n4)cc4ncccc34)n2)C[C@H](C#N)C1
(Q) Lowest pIC50? choose 1 or 2 Write down the label attached to your selection.
(A) 2

* * *

Molecular target: TYK2 (Homo sapiens (Human))
Sequence (P29597 897-1176): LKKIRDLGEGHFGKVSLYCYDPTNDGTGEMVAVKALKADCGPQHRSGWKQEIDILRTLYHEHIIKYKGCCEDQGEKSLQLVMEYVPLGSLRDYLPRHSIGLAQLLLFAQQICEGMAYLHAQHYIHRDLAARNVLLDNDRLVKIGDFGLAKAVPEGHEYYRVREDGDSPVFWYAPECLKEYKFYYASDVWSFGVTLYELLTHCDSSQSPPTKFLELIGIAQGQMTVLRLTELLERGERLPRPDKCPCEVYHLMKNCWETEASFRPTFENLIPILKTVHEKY
Experiment: JAK Caliper Enzyme Assay at 1 mM ATP, TYK2
Format: biochemical
Method: Compounds of the invention were evaluated by in vitro methods to determine their respective ability to inhibit the JAK kinases (TYK2, JAK1, JAK2, JAK3). The human JAK inhibitory activity was determined by using a microfluidic assay to monitor phosphorylation of a synthetic peptide by the recombinant human kinase domain of each of the four members of the JAK family, JAK1, JAK2, JAK3 and TYK2. […]
Reported metric: IC50 (nM)

CC(C)(O)[C@H]1C[C@@](CC#N)(n2ccc(-c3nc(-c4cc[nH]n4)cc4ncccc34)n2)C1 ... 730
Cn1ccc(-c2cc(-c3cnn([C@]4(CC#N)C[C@H](C#N)C4)n3)c3cccnc3c2)n1 ... 25
N#CC[C@]1(n2ccc(-c3nc(-c4cc(N)cnn4)cc4ncccc34)n2)C[C@H](C#N)C1 ... 3390

I = CS(=O)(=O)N1CC(CC#N)(n2ccc(-c3nc(-c4cnco4)cc4ncccc34)n2)C1
II = COc1cc(-c2cc3ncccc3c(-c3ccn(C4(CC#N)CN(S(C)(=O)=O)C4)n3)n2)ccn1
III = Cc1cc(-c2nc(-c3cc(N)n(C)n3)cc3ncccc23)nn1[C@]1(CC#N)C[C@H](C#N)C1
IV = Cc1cc(-c2nc(-c3cc[nH]n3)cc3ncccc23)nn1[C@]1(CC#N)C[C@@H](C#N)C1
(Q) Arrange items by their IC50 values in increasing order. List the labels according to the requested ordering.
(A) III, IV, II, I
(III: 16 nM, IV: 27 nM, II: 84 nM, I: 172 nM)

* * *

Target: JAK2 (Homo sapiens (Human))
Assay: JAK Caliper Enzyme Assay at 1 mM ATP, JAK2
Assay type: biochemical
Description: Compounds of the invention were evaluated by in vitro methods to determine their respective ability to inhibit the JAK kinases (TYK2, JAK1, JAK2, JAK3). The human JAK inhibitory activity was determined by using a microfluidic assay to monitor phosphorylation of a synthetic peptide by the recombinant human kinase domain of each of the four members of the JAK family, JAK1, JAK2, JAK3 and TYK2. […]
pIC50: −log10 of the molar value.
Reported metric: pIC50

1 = N#CC[C@]1(n2ccc(-c3nc(-c4c[nH]nc4N)cc4ncccc34)n2)C[C@@H](C#N)C1 [Example 97]
2 = CC(C)(O)[C@H]1C[C@](CC#N)(n2ccc(-c3nc(-c4cc[nH]n4)cc4ncccc34)n2)C1 [Example 39]
(Q) Lowest pIC50? choose 1 or 2 Write down the label attached to your selection.
(A) 2
(2: 5.68, 1: 8.22)

* * *

target: JAK2 (Homo sapiens (Human), UniProt O60674); assay: JAK Caliper Enzyme Assay at 1 mM ATP, JAK2; type: biochemical
Reported metric: IC50 (nM)

These solved cases illustrate the format of a correct answer.
Cc1cc(-c2cc3ncccc3c(-c3ccn([C@]4(CC#N)C[C@@H](C#N)C4)n3)n2)nn1C ... 510
Cn1cc(-c2cc3ncccc3c(-c3ccn(C4(CC#N)CN(S(=O)(=O)C5CC5)C4)n3)n2)cn1 ... 243
CS(=O)(=O)N1CC(CC#N)(n2ncc(-c3cc(-c4cn[nH]c4)cc4ncccc34)n2)C1 ... 390
CS(=O)(=O)N1CC(CC#N)(n2cc(-c3cc(-c4cn[nH]c4)cc4ncccc34)cn2)C1 ... 525
N#CCC1(n2ccc(-c3nc(-c4cnc5c(c4)CCC5)cc4ncccc34)n2)CN(CC(F)(F)F)C1 ... 5820
CS(=O)(=O)N1CC(CC#N)(n2ccc(-c3nc(-c4ccn[nH]4)cc4ncccc34)n2)C1 ... 464
N#CC[C@]1(n2ncc(-c3cc(-c4cc[nH]n4)cc4ncccc34)n2)C[C@@H](C#N)C1 ... 29
CS(=O)(=O)Nc1cncc(-c2cc3ncccc3c(-c3ccn(C4(CC#N)CN(S(C)(=O)=O)C4)n3)n2)c1 ... 6690

P = N#CC[C@]1(n2ncc(-c3cc(-c4cc(N)[nH]n4)cc4ncccc34)n2)C[C@@H](C#N)C1
Q = N#CCC1(n2ccc(-c3nc(-c4ccncc4F)cc4ncccc34)n2)CN(CC(F)(F)F)C1
R = N#CC[C@]1(n2ncc(-c3cc(-c4cn[nH]c4)cc4ncccc34)n2)C[C@H](C#N)C1
S = N#CCC1(n2ccc(-c3nc(-c4cn(C5COC5)cn4)cc4ncccc34)n2)CN(CC(F)(F)F)C1
(Q) Could you please sort these 4 entries by IC50 from high to low? List the labels according to the requested ordering.
(A) Q, S, R, P

a = N#CCC1(n2ccc(-c3nc(-c4ccn[nH]4)cc4ncccc34)n2)CN(S(=O)(=O)C2COC2)C1
b = N#CCC1(n2ccc(-c3nc(-c4ccn[nH]4)cc4ncccc34)n2)CC(C(N)=O)C1 (stereo not drawn)
(Q) Lowest IC50? choose a or b Write down the label attached to your selection.
(A) a
(a: 188 nM, b: 8680 nM)

* * *

molecular target: UniProtKB O60674; experiment: JAK Caliper Enzyme Assay at 1 mM ATP, JAK2; type: biochemical
pIC50: −log10 of the molar value.
Reported metric: pIC50

N#CCC1CC(CC#N)(n2cc(-c3nc(-c4cn[nH]c4)cc4ncccc34)cn2)C1 (stereo not drawn) ... 7.59
CS(=O)(=O)N1CC(CC#N)(n2ccc(-c3nc(-c4ccc(N)nc4N)cc4ncccc34)n2)C1 ... 6.35
Cn1cnc2cc(-c3cc4ncccc4c(-c4ccn(C5(CC#N)CN(S(C)(=O)=O)C5)n4)n3)cnc21 ... 5.33

1 = CS(=O)(=O)N1CC(CC#N)(n2ccc(-c3nc(-c4cnn5ccccc45)cc4ncccc34)n2)C1
2 = CO[C@H]1C[C@](CC#N)(n2ccc(-c3nc(-c4cnn(CCO)c4)cc4ncccc34)n2)C1
3 = N#CC[C@]1(n2ccc(-c3nc(-c4cc5n(n4)CCNC5)cc4ncccc34)n2)C[C@H](C#N)C1
(Q) Could you please sort these 3 entries by pIC50 from high to low? List the labels according to the requested ordering.
(A) 3, 1, 2

A = C[C@]1(C#N)C[C@@](CC#N)(n2ccc(-c3nc(-c4cc[nH]n4)cc4ncccc34)n2)C1
B = CCN1CC(CC#N)(n2ccc(-c3nc(-c4cc(N)n(C)n4)cc4ncccc34)n2)C1
C = CS(=O)(=O)N1CC(CC#N)(n2ccc(-c3nc(-c4cnc(N)c(N)c4)cc4ncccc34)n2)C1
D = CCS(=O)(=O)N1CC(CC#N)(n2ccc(-c3nc(-c4cnn(C)c4)cc4ncccc34)n2)C1
(Q) Could you please sort these 4 entries by pIC50 from high to low? List the labels according to the requested ordering.
(A) D, A, C, B
(D: 6.76, A: 6.47, C: 6.00, B: 5.23)

A = Cc1ncc(-c2cc3ncccc3c(-c3ccn(C4(CC#N)CN(S(C)(=O)=O)C4)n3)n2)cc1O
B = CC(=O)Nc1cc(-c2cc3ncccc3c(-c3ccn(C4(CC#N)CN(S(C)(=O)=O)C4)n3)n2)cnc1NC(C)=O
(Q) Of A and B , whose reported pIC50 is the larger number? Write down the label attached to your selection.
(A) A
(A: 5.89, B: 5.10)
